System: MDA-MB-231
Assay: Antiproliferative activity against human MDA-MB-231 cells after 48 hrs by MTT assay
Type: functional, cell-based
Conditions: MDA-MB-231, 48 h
pIC50: −log10 of the molar value.
Test readout: pIC50

- O=C(CN1C(=O)C2(OCCCO2)c2cc(Cl)ccc21)Nc1ccc(C(=O)NO)cc1: 4.24
- O=C(CCCN1C(=O)C2(OCCCO2)c2cc(Br)ccc21)Nc1ccc(C(=O)NO)cc1: 3.90
- O=C(CCN1C(=O)C2(OCCCO2)c2cc(Br)ccc21)Nc1ccc(C(=O)NO)cc1: 4.00

(A) O=C(CN1C(=O)C2(OCCCO2)c2cc(Br)ccc21)Nc1ccc(C(=O)NO)cc1
(B) Nc1ccccc1NC(=O)c1ccc(NC(=O)CN2C(=O)C3(OCCCO3)c3cc(Br)ccc32)cc1
(C) O=C(CN1C(=O)C2(OCCCCO2)c2cc(Br)ccc21)Nc1ccc(C(=O)NO)cc1
Query :: List from greatest to least pIC50. A ranking is expressed here by listing the labels in the requested order.
Result :: C, A, B

Each recorded value in this set is attributed to ChEMBL document CHEMBL3593221.
